Assay: NCI Yeast Anticancer Drug Screen. Data for the sgs1 mgt1 strain (AID 161);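 further: 0% = growth of cultures given vehicle only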
Conditions: S. cerevisiae sgs1 mgt1 strain, at 50.0 µM (retest, dose inferred, filed as 5.0)
This is part of a sample that, as a whole, favours compounds with a hit. Of some 79,000 tested, about 15% had one in any assay. Active and inactive are the calls of the source. No stated cut-off is given here; in the data, active means growth inhibition above about 70%; inactive means the rest.
Outcomes: yes (1) = active, no (0) = inactive

| MOLECULE | CATEGORY |
| --- | --- |
| S=C(SSC(=S)N1CCOCC1)N1CCOCC1 | yes (1) |
| C=C(CO)C(=O)OC1CC(=C)C2CC(O)C(C)C2C2OC(=O)C(=C)C12 (stereo unspecified) | yes (1) |
| c1csc(-c2[nH]nc3c2CCc2ccccc2-3)c1 | yes (1) |
| COc1cc2c(c(OC)c1OC)-c1ccc(NCc3ccccc3)c(=O)cc1[C@@H](NC(C)=O)CC2 | yes (1) |
| COc1ccc(C(OCC2OC(n3ccc(NC(=O)c4ccccc4)nc3=O)C(O)C2O)(c2ccccc2)c2ccccc2)cc1 (stereo unspecified) | yes (1) |
| C=CCO/N=C/c1cc(NC(=S)c2ccoc2C)ccc1Cl | yes (1) |
| CNc1ncnc2nc(C)[nH]c12 | no (0) |
| CCOC(=O)c1c(C)[nH]c2ccc(O)cc12 | no (0) |
| Nc1ncnc2c(C3OC(CO)C(O)C3O)c[nH]c12 (stereo unspecified) | yes (1) |
| CCOC(=O)/C(=C\c1ccc2ccccc2c1)P(=O)(OCC)OCC | no (0) |
| C1CCC(CCCc2nn[nH]n2)CC1 | no (0) |
